Entry source: paper PMC10450149

Test system: recombinant PsauGOBP2
method: Competitive fluorescence binding assay: displacement of 1-NPN from recombinant PsauGOBP2
Set-up: species or system Peridroma saucia
assay conditions: remaining 1-NPN fluorescence at Max Conc 20 (20 µM, host plant volatiles); means ± SE, n = 3
Overview of reported Fluorescence at max (%) across a group of compounds:
Return type: number; implicit unit %.

compound	unit symbol	Fluorescence at max (%)
CCCCCCCCCC=O	%	73

Let us examine a further case.
// Input: `CCCCCCCO` . Output its Fluorescence at max (%) only.
80

====

List of IC50 values.
assayed target: recombinant PsauGOBP2
method: Competitive fluorescence binding assay: displacement of 1-NPN from recombinant PsauGOBP2
assay conditions: PsauGOBP2 and 1-NPN; means ± SE, n = 3; IC50 > 30 μM considered no binding affinity; read-out: IC50 (concentration of ligand halving the initial fluorescence value of 1-NPN)

compound	IC50
CC(C)=CCC/C(C)=C/CC/C(C)=C/CO [Farnesol]	> 30 µM
COC(=O)c1ccccc1O [Methyl salicylate]	> 30 µM
CC(=O)OCCc1ccccc1 [Phenylethyl acetate]	10.5 µM
CCCCCCCCCCCCO [Dodecanol]	19.5 µM
CCCCCCCC=O [Octanal]	> 30 µM
CC/C=C\CCOC(C)=O [(Z)-3-Hexenyl acetate, (Z)-3-hexenyl acetate]	> 30 µM

Kindly indicate its recorded IC50. Item: CC/C=C\CCO [(Z)-3-Hexen-1-ol, (Z)-3-hexen-1-ol]
> 30 µM

Give recorded IC50. CC/C=C\CC1=C(C)CCC1=O [(Z)-jasmone]
> 30 µM

Identify measured IC50 associated with CCC/C=C/COC(C)=O [(E)-2-Hexenyl acetate, (E)-2-hexenyl acetate]
> 30 µM

Kindly indicate its recorded IC50. Item: CC/C=C\C[C@H]1C(=O)CC[C@@H]1CC(=O)O [Jasmonic acid]
> 30 µM

Give the reported IC50 for this compound. C=CC(=C)CCC=C(C)C [β-Myrcene, β-myrcene]
12 µM

Answer with reported IC50 of CCCC/C=C\CCCCCCCCOC(C)=O [Z9-14: Ac]
7.5 µM

Give the reported IC50 for this compound. C=CC(C)(O)CCC=C(C)C (stereo not shown) [Linalool]
> 30 µM

====

Tested on: recombinant PsauGOBP2
method: Competitive fluorescence binding assay: displacement of 1-NPN from recombinant PsauGOBP2
Parameters: species or system Peridroma saucia
assay conditions: remaining 1-NPN fluorescence at Max Conc 20 (20 µM, host plant volatiles); means ± SE, n = 3
result type: Fluorescence at max (%)
// note: answer is a bare numeric in %

compound	Fluorescence at max (%)
C=C(C)[C@H]1CC=C(C)CC1	85
CC/C=C\CC1C(=O)CCC1CC(=O)OC (centres unmarked) [Methyl jasmonate]	70
CC/C=C\CC1=C(C)CCC1=O [(Z)-jasmone]	75
C=C1CCC2CC1C2(C)C (centres unmarked)	79
CCC/C=C/CO [(E)-2-Hexen-1-ol, (E)-2-hexen-1-ol]	69

Using known records, supply Fluorescence at max (%) for `c1ccc2[nH]ccc2c1`
100

Quick one: give measured Fluorescence at max (%) for CC/C=C\CCOC(C)=O [(Z)-3-Hexenyl acetate, (Z)-3-hexenyl acetate]
86

====

System: recombinant PsauGOBP2
method: Competitive fluorescence binding assay: displacement of 1-NPN from recombinant PsauGOBP2
Parameters: species or system Peridroma saucia
assay conditions: remaining 1-NPN fluorescence at Max Conc 20 (20 µM, host plant volatiles); means ± SE, n = 3
result type: Fluorescence at max (%)
Write down the numeric answer in % and omit the unit.

Please review the following examples before continuing.
compound	Fluorescence at max (%)
CC/C=C\CCO [(Z)-3-Hexen-1-ol, (Z)-3-hexen-1-ol]	72
CCCCCCCCCCCCO [Dodecanol]	49
COC(=O)c1ccccc1O [Methyl salicylate]	79
CC(C)=CCCC(C)=CC=O (mixture of isomers) [Citral]	76
CCC/C=C/COC(C)=O [(E)-2-Hexenyl acetate, (E)-2-hexenyl acetate]	69

Output Fluorescence at max (%) of CC(C)=CCC/C(C)=C/CC/C(C)=C/CO [Farnesol]
100

For the compound C=CC(=C)CC/C=C(\C)CCC=C(C)C [(E)-β-farnesene] , report Fluorescence at max (%).
75
